Assay: In vitro stability in 6 mM DTPA solution pH 7 (RP-HPLC)
Format: physicochemical
Details: 6 mM DTPA pH 7, 37 °C, Incubation time (min) 24
Experimental: The in vitro stability of radiolabelled siderophores (3–6 μg/100 μl) was tested in fresh human serum (300 μl) and a 6 mM solution of diethylenetriaminepentaacetic acid (DTPA) pH = 7 (100 μl) at 37 °C at several time points (30, […]). After incubation, human serum samples were precipitated with acetonitrile or ethanol, centrifuged (2200×g, 3 min) and the supernatant analyzed. Degradation of the radiolabelled siderophore complexes was evaluated by RP-HPLC. […]
RECORDED_ENDPOINT: Stability in DTPA solution (%) (n = 1)

COMPOUND: CC(=O)NC1CCCN([O-])C(=O)C=C(C)CCOC(=O)C(NC(C)=O)CCCN([O-])C(=O)C=C(C)CCOC(=O)C(NC(C)=O)CCCN([O-])C(=O)C=C(C)CCOC1=O.[89Zr+4] (stereo not shown) [[^89Zr]TAFC, [^89Zr]triacetylfusarinine C]
UNIT_TAG: %
REPORTED: 99.50

COMPOUND: CC(=O)N([O-])CCCCCNC(=O)CCC(=O)N([O-])CCCCCNC(=O)CCC(=O)N([O-])CCCCCN.[89Zr+4] [[^89Zr]FOXB]
UNIT_TAG: %
REPORTED: 87.10

COMPOUND: O=C1CCC(=O)N([O-])CCCCCNC(=O)CCC(=O)N([O-])CCCCCNC(=O)CCC(=O)N([O-])CCCCCN1.[89Zr+4] [[^89Zr]FOXE, [^89Zr]ferrioxamine E]
UNIT_TAG: %
REPORTED: 99.70

COMPOUND: CC(=CC(=O)N([O-])CCCC1NC(=O)CNC(=O)C(CO)NC(=O)C(CO)NC(=O)C(CCCN([O-])C(=O)C=C(C)C(=O)O)NC(=O)C(CCCN([O-])C(=O)C=C(C)C(=O)O)NC1=O)C(=O)O.[89Zr+4] (stereo not shown) [[^89Zr]FCHA]
UNIT_TAG: %
REPORTED: 54.22

---

Test: In vitro stability in fresh human serum (RP-HPLC)
Type: in vitro ADME
Details: 37 °C, incubation time 24 h
Each entry below lists one item and its recorded Stability in human serum (%) (n = 1) value.

COMPOUND: CC(=CC(=O)N([O-])CCCC1NC(=O)CNC(=O)C(CO)NC(=O)C(CO)NC(=O)C(CCCN([O-])C(=O)C=C(C)C(=O)O)NC(=O)C(CCCN([O-])C(=O)C=C(C)C(=O)O)NC1=O)C(=O)O.[89Zr+4] (stereo not shown) [[^89Zr]FCHA]
UNIT_TAG: %
Stability in human serum (%) (n = 1): 77.38
--
COMPOUND: O=C1CCC(=O)N([O-])CCCCCNC(=O)CCC(=O)N([O-])CCCCCNC(=O)CCC(=O)N([O-])CCCCCN1.[89Zr+4] [[^89Zr]FOXE, [^89Zr]ferrioxamine E]
UNIT_TAG: %
Stability in human serum (%) (n = 1): 98.34
--
COMPOUND: CC(=O)NC1CCCN([O-])C(=O)C=C(C)CCOC(=O)C(NC(C)=O)CCCN([O-])C(=O)C=C(C)CCOC(=O)C(NC(C)=O)CCCN([O-])C(=O)C=C(C)CCOC1=O.[89Zr+4] (stereo not shown) [[^89Zr]TAFC, [^89Zr]triacetylfusarinine C]
UNIT_TAG: %
Stability in human serum (%) (n = 1): 98.50
--
COMPOUND: CC(=O)N([O-])CCCCCNC(=O)CCC(=O)N([O-])CCCCCNC(=O)CCC(=O)N([O-])CCCCCN.[89Zr+4] [[^89Zr]FOXB]
UNIT_TAG: %
Stability in human serum (%) (n = 1): 99.53
